Catalogue of compounds with associated pKa
- method_notes: physchem
- Description: Ionization constant, pKa by spectrophotometry

Consider the worked cases shown below.
CC1(C)CCN(Cc2ccc3c(c2)OCO3)CC1 : 9.5
c1cc2c(cc1CN1CC3(COC3)C1)OCO2 : 8
CC1(C)CCCN(Cc2ccc3c(c2)OCO3)C1 : 9.4

Query: Which measured pKa value corresponds to c1cc2c(cc1CN1CCC1)OCO2 ?
Result: 9.5

Query: Entry CCc1ccc(CCCCN(C)C)cc1 : reported pKa = ?
Result: 9.9

Query: Dear colleague, I am looking for the recorded pKa of the following compound: CC1(C)CCN(Cc2ccc3c(c2)OCO3)C1
Result: 9.7

Query: Could you tell me which pKa is on file for c1cc2c(cc1CN1CCOCC1)OCO2 ?
Result: 7

Query: If you can, please state the reported pKa value of c1cc2c(cc1CN1CC3CC(C1)O3)OCO2 .
Result: 7.1

Query: Would you mind telling me what pKa value was observed for CN(C)CCCCc1ccc(C2(F)COC2)cc1 ?
Result: 9.9

Query: Need pKa of CC1(C)CN(Cc2ccc3c(c2)OCO3)C1 , thanks.
Result: 9.6

Query: // returns reported pKa for input O=C1CCN(Cc2ccc3c(c2)OCO3)C1
Result: 6.1

* * *

- method_notes: physchem
- condition_set: octanol/water
- Description: Lipophilicity, log P of the compound
reported_endpoint: logP

Query: Quick one: logP of CN(C)CCCCc1ccc(C2(C)COC2)cc1 ?
Result: 3.3

Query: For c1cc2c(cc1CN1CCOCC1)OCO2 , what is its reported logP?
Result: 1.6

Query: Please give the measured logP for this molecule: c1cc2c(cc1CN1CCC3(COC3)C1)OCO2
Result: 1.5

* * *

Entries and their measured log10 of solubility thermodynamic follow.
- method_notes: physchem
- condition_set: phosphate buffer, pH 9.9
- Description: Thermodynamic solubility in 50 mM aqueous phosphate buffer of pH 9.9 at 22.5 degC by HPLC analysis
Log10 applied to solubility thermodynamic; unit prior to transform: µM.

Example molecules with recorded log10 of solubility thermodynamic:
CN(C)CC(C)(C)CCc1ccc(C(C)(C)C)cc1 : 0.60
c1cc2c(cc1CN1CCCCC13COC3)OCO2 : 3.46
CC1(C)CCCCN1Cc1ccc2c(c1)OCO2 : 2.08
O=C1CCCCN1Cc1ccc2c(c1)OCO2 : 4.43
c1cc2c(cc1CN1CCCC1)OCO2 : 3.45
CN(C)CCCCc1ccc(C2(C)COC2)cc1 : 4.26

Query: Entry c1cc2c(cc1CN1CCC3(COC3)C1)OCO2 : reported log10 of solubility thermodynamic = ?
Result: 3.48

Query: Given the entry CCc1ccc(CCCCN(C)C)cc1 , report its measured log10 of solubility thermodynamic.
Result: 2.40

Query: I have this molecule here, c1cc2c(cc1CN1CCC1)OCO2 , and I need its recorded log10 of solubility thermodynamic.
Result: 4.11

* * *

- method_notes: physchem
reported_endpoint: pKa
# print the numeric value only

Worked cases, answers included:
CN(C)CCCCc1ccc(C2(O)COC2)cc1 : 9.6
c1cc2c(cc1CN1CCCCC1)OCO2 : 9.6

Attention now shifts to the item below.
Query: Value lookup for pKa; key = CC1(C)CCN1Cc1ccc2c(c1)OCO2
Result: 10.1

* * *

- method_notes: physchem
- condition_set: octanol/water, pH 7.4
reported_endpoint: logD
API note: the answer field is a bare number with no unit suffix.

Sample records with logD:
O=C1CCCN1Cc1ccc2c(c1)OCO2 : 1.2
CC1(C)CCN1Cc1ccc2c(c1)OCO2 : 0.1
CN(C)CCCC1(c2ccc(C(C)(C)C)cc2)COC1 : 1.7
CN(C)CCCCc1ccc(C2(F)COC2)cc1 : -0.5
c1cc2c(cc1CN1CCCCC13COC3)OCO2 : 2.2
CC1(C)CCN(Cc2ccc3c(c2)OCO3)C1 : 1.4

Query: Need logD, item CN(C)CCCCc1ccc(C2COC2)cc1
Result: -0.1

Query: // logD lookup, key: CC1(C)CCCN1Cc1ccc2c(c1)OCO2
Result: 0.9

Query: logD for CC1(C)CN(Cc2ccc3c(c2)OCO3)C1 ?
Result: 0.8

Query: So what does the record say about logD for CN(C)C1(CCCc2ccc(C(C)(C)C)cc2)COC1 ?
Result: 3.3

Query: logD; subject: O=C1CCN1Cc1ccc2c(c1)OCO2
Result: 1.1

Query: // lookup logD for c1cc2c(cc1CN1CCCC1)OCO2
Result: 0.2

Query: Could you tell me which logD is on file for c1cc2c(cc1CN1CC3(COC3)C1)OCO2 ?
Result: 0.5

Query: # input compound: c1cc2c(cc1CN1CCC1)OCO2 ; wanted: its logD
Result: -0.1

Query: Give the measured logD of CCc1ccc(CCCCN(C)C)cc1 .
Result: 1.8

Query: Quick one: logD of c1cc2c(cc1CN1CCOCC1)OCO2 ?
Result: 1.5

Query: GET /values?readout=logD&item= O=C1CCCCN1Cc1ccc2c(c1)OCO2
Result: 1.6

Query: Query (compound): c1cc2c(cc1CN1CCCC13COC3)OCO2 ; field requested: logD
Result: 1.9

Query: # get_value(readout='logD', item= c1cc2c(cc1CN1CCC3(CC1)COC3)OCO2 )
Result: 1

Query: Please report the recorded logD for c1cc2c(cc1CN1CCCC3(COC3)C1)OCO2 .
Result: 1.7
